molecular target: R232-STING (Homo sapiens (Human), UniProt Q86WV6, H232R); conditions: read-out: R232-STING SPA-IC50 Ki; STING residues 155-341, 100 nM 3H-cGAMP; KI from IC50 with Cheng-Prusoff equation
Sequence (Q86WV6 155-341 H232R): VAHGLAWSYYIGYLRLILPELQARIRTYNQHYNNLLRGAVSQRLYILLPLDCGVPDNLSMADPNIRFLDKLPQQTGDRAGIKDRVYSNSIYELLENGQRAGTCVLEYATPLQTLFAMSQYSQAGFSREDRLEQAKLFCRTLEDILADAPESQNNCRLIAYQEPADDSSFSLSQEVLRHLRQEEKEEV
PROPERTY: Ki
Please answer using the number first and the unit second.

# return recorded Ki for input COCCCn1nc(C)cc1-c1cn(C)c(-c2nc(C(N)=O)cc3c2cnn3CF)n1 [AIN03]
12.8 nM

Provide only the value of recorded Ki for Cc1cc(-c2cn(C)c(-c3nc(C(N)=O)cc4c3cnn4C)n2)n(CCCO)n1 [Example AIE01]
3.6 nM

Find the measured Ki of CCn1nc(C)c(O)c1-c1cn(C)c(-c2nc(C(N)=O)cc3c2cnn3C)n1 [AIF07] and report it.
2 nM

Query Ki for Cc1cc(-c2cn(C)c(-c3nc(C(N)=O)cc4c3cnn4C)n2)n(C[C@@H]2CCO2)n1 (single isomer, unassigned) [AIM02]
135 nM
